Every entry's value here was drawn from PubChem BioAssay (NCI).

- Test system: KM12 colon
- ASSAY_COMMENT: NCI-60 one-dose screen, 48 h (100 = growth as untreated, 0 = no growth, -100 = all killed)
- CONDITION_PARAMETERS: 10 µM unless noted
This is part of a sample that, as a whole, favours compounds with a hit. Of some 83,000 tested, about 20% had one in any assay.
For each of the compounds below, state its growth.
API: value field is a number in %; no unit string.

Quick one: growth of CC(=O)Nc1ccc(NC(=O)Nc2cccc(-c3nc(-c4ccc(NC(=O)c5cccs5)cc4Cl)no3)c2)cc1C(F)(F)F ?
-50.1

Now consider CN(C)c1ncc(/C=C2\SC(=S)N(Cc3ccccc3Cl)C2=O)s1 .
97.5

And then C=C1C(=O)O[C@@H]2/C=C(/C)C3=CC(=O)[C@@](C)(C[C@H](OC(=O)/C(C)=C\C)[C@@H]12)O3 , what is it?
28.2

Quick one: O=C(N/N=C\c1ccc(Cl)cc1)c1ccc2nc(-c3ccc(Br)cc3)[nH]c2c1
-23.2
